This collection of values is drawn from paper PMC8016129.

Substrate: CCCCCCCCCCCCCCCCOC[C@@H](O)COP(=O)([O-])OCC[N+](C)(C)C
Experiment: released choline by choline oxidase/peroxidase colorimetric assay, Michaelis-Menten fit
Assay type: biochemical, Thermocrispum sp. RD004668
Details: pH 8.0, 50 °C, 1 min, 2 mM CaCl2, substrate micelles
From the text: released choline by choline oxidase/peroxidase colorimetric assay, Michaelis-Menten fit on LyPls-PLD (lysoplasmalogen-specific phospholipase D)
Listed here: items and their measured kcat.

The examples below pair each entry with its known result.
LyPls-PLD (lysoplasmalogen-specific phospholipase D) (Thermocrispum sp. RD004668; M71G) (protein, recombinant from pET24/lpls-pld in E. coli BL21(DE3); purified on HisTrap HP) TTRTTDNPWLDARVLNMAHAGGENEAPANTLYAFKRAVKLGANGLELDVQSTKDDQLVVIHNATVDQTTDGTGKVRDLTFEQVHELDAAYNFIPGRHAVPGEPPESYPLRGVRTGEKKPPPGYQPSDFAIPKLADVLEAFPRTPINIEIKGTSDADIPSFLHNAKLLARLLKKTGRTDFIVTSFNDLAVAKFHLLAPDIPIAPGMAGLAAYFLLGVKPMHGTVALQIPVRYQGLEIATPEFIRRAHADGYAVHVWFSGTAPDDEATYNRIIDSCADGLMPAYPALLERILDERGIERPGRPGVDPCG	72 ± 2.9 s⁻¹
LyPls-PLD (lysoplasmalogen-specific phospholipase D) (Thermocrispum sp. RD004668; F211T) (protein, recombinant from pET24/lpls-pld in E. coli BL21(DE3); purified on HisTrap HP) TTRTTDNPWLDARVLNMAHAGGENEAPANTLYAFKRAVKLGANMLELDVQSTKDDQLVVIHNATVDQTTDGTGKVRDLTFEQVHELDAAYNFIPGRHAVPGEPPESYPLRGVRTGEKKPPPGYQPSDFAIPKLADVLEAFPRTPINIEIKGTSDADIPSFLHNAKLLARLLKKTGRTDFIVTSTNDLAVAKFHLLAPDIPIAPGMAGLAAYFLLGVKPMHGTVALQIPVRYQGLEIATPEFIRRAHADGYAVHVWFSGTAPDDEATYNRIIDSCADGLMPAYPALLERILDERGIERPGRPGVDPCG	205 ± 8.9 s⁻¹
LyPls-PLD (lysoplasmalogen-specific phospholipase D) (Thermocrispum sp. RD004668) (protein, recombinant from pET24/lpls-pld in E. coli BL21(DE3); purified on HisTrap HP) TTRTTDNPWLDARVLNMAHAGGENEAPANTLYAFKRAVKLGANMLELDVQSTKDDQLVVIHNATVDQTTDGTGKVRDLTFEQVHELDAAYNFIPGRHAVPGEPPESYPLRGVRTGEKKPPPGYQPSDFAIPKLADVLEAFPRTPINIEIKGTSDADIPSFLHNAKLLARLLKKTGRTDFIVTSFNDLAVAKFHLLAPDIPIAPGMAGLAAYFLLGVKPMHGTVALQIPVRYQGLEIATPEFIRRAHADGYAVHVWFSGTAPDDEATYNRIIDSCADGLMPAYPALLERILDERGIERPGRPGVDPCG	74 s⁻¹

Determine from records and report kcat for LyPls-PLD (lysoplasmalogen-specific phospholipase D) (Thermocrispum sp. RD004668; W282G) (protein, recombinant from pET24/lpls-pld in E. coli BL21(DE3); purified on HisTrap HP) TTRTTDNPWLDARVLNMAHAGGENEAPANTLYAFKRAVKLGANMLELDVQSTKDDQLVVIHNATVDQTTDGTGKVRDLTFEQVHELDAAYNFIPGRHAVPGEPPESYPLRGVRTGEKKPPPGYQPSDFAIPKLADVLEAFPRTPINIEIKGTSDADIPSFLHNAKLLARLLKKTGRTDFIVTSFNDLAVAKFHLLAPDIPIAPGMAGLAAYFLLGVKPMHGTVALQIPVRYQGLEIATPEFIRRAHADGYAVHVGFSGTAPDDEATYNRIIDSCADGLMPAYPALLERILDERGIERPGRPGVDPCG
4.4 ± 0.082 s⁻¹
